Where these numbers come from: ChEMBL document CHEMBL6096732

- Test details: Oral bioavailability in male Sprague-Dawley rat at 20 mg/kg measured after 12 hrs by LC-MS/MS analysis
- Format: ADME, organism-based
- Particulars: in vivo
Outcome measure: bioavailability
Put your answer as a value accompanied by its unit after it.

Which bioavailability reading was recorded for the compound CCCNNC(=O)c1ccc(Cn2c3ccccc3c3c(-c4ccccn4)nc4ccccc4c32)cc1 ?
95.3%

----------
- Measurement target: Protein deacetylase HDAC6 (Homo sapiens)
- Particulars: dose 500.0 nM, time 3.0 hrs
Outcome measure: inhibition

Example entries begin here.
Record request: inhibition value, item CCCCCCCCNNC(=O)c1ccc(Cn2c3ccccc3c3c(-c4ccccn4)nc4ccccc4c32)cc1
26%

I would be grateful if you could share the reported inhibition for CCCN(CCC)NC(=O)c1ccc(Cn2c3ccccc3c3c(C4CCN(C(=O)OC(C)(C)C)CC4)nc4ccccc4c32)cc1 .
< 10%

Returns the measured inhibition for the input compound. Input: CCCNNC(=O)c1ccc(Cn2c3ccccc3c3c(-c4ccc(C#N)cc4)nc4ccccc4c32)cc1
< 10%

Tell me the measured inhibition of CCCCCCCCCCNNC(=O)c1ccc(Cn2c3ccccc3c3c(-c4ccccn4)nc4ccccc4c32)cc1 , please.
< 10%

Which inhibition value belongs to CCCCCCCCCNNC(=O)c1ccc(Cn2c3ccccc3c3c(-c4ccccn4)nc4ccccc4c32)cc1 ?
< 10%

Can you look up the measured inhibition of C/C=C/CNNC(=O)c1ccc(Cn2c3ccccc3c3c(-c4ccccn4)nc4ccccc4c32)cc1 for me?
< 10%

Further cases:
Which inhibition is reported for this compound? CCCCCCCNNC(=O)c1ccc(Cn2c3ccccc3c3c(-c4ccccn4)nc4ccccc4c32)cc1
< 10%

Could you tell me which inhibition is on file for CCCCCNNC(=O)c1ccc(Cn2c3ccccc3c3c(-c4ccccn4)nc4ccccc4c32)cc1 ?
< 10%

Quick one: inhibition of CCCNNC(=O)c1ccc(Cn2c3ccccc3c3c(C4CCN(C(=O)OC(C)(C)C)CC4)nc4ccccc4c32)cc1 ?
< 10%

Quick one: inhibition of CCCN(CCC)NC(=O)c1ccc(Cn2c3ccccc3c3c(-c4ccccn4)nc4ccccc4c32)cc1 ?
< 10%

Can you look up the measured inhibition of CCCNNC(=O)c1ccc(Cn2c3ccccc3c3c(-c4cccnc4)nc4ccccc4c32)cc1 for me?
21%

May I ask what inhibition has been recorded for CC(C)NNC(=O)c1ccc(Cn2c3ccccc3c3c(-c4ccccn4)nc4ccccc4c32)cc1 ?
< 10%

Could you tell me which inhibition is on file for CCCNNC(=O)c1ccc(Cn2c3ccccc3c3c(-c4ccncc4)nc4ccccc4c32)cc1 ?
19%

Reported inhibition for CC(C)CCNNC(=O)c1ccc(Cn2c3ccccc3c3c(-c4ccccn4)nc4ccccc4c32)cc1 : what is it?
< 10%

Could you tell me which inhibition is on file for CCCNNC(=O)c1ccc(Cn2c3ccccc3c3c(-c4ccc(O)c(OC)c4)nc4ccccc4c32)cc1 ?
< 10%

Quick one: inhibition of CCCNNC(=O)c1ccc(Cn2c3ccccc3c3c(-c4cn(C)c5ccccc45)nc4ccccc4c32)cc1 ?
< 10%

Looking for the measured inhibition of CCCNNC(=O)c1ccc(Cn2c3ccccc3c3c(-c4cccc(Cl)c4)nc4ccccc4c32)cc1 , can you help?
< 10%

I would be grateful if you could share the reported inhibition for CCCNNC(=O)c1ccc(Cn2c3ccccc3c3c(-c4ccccc4)nc4ccccc4c32)cc1 .
24%

----------
- Measurement target: Histone deacetylase 9 (Homo sapiens)
- Sequence (Q9UKV0 whole entry): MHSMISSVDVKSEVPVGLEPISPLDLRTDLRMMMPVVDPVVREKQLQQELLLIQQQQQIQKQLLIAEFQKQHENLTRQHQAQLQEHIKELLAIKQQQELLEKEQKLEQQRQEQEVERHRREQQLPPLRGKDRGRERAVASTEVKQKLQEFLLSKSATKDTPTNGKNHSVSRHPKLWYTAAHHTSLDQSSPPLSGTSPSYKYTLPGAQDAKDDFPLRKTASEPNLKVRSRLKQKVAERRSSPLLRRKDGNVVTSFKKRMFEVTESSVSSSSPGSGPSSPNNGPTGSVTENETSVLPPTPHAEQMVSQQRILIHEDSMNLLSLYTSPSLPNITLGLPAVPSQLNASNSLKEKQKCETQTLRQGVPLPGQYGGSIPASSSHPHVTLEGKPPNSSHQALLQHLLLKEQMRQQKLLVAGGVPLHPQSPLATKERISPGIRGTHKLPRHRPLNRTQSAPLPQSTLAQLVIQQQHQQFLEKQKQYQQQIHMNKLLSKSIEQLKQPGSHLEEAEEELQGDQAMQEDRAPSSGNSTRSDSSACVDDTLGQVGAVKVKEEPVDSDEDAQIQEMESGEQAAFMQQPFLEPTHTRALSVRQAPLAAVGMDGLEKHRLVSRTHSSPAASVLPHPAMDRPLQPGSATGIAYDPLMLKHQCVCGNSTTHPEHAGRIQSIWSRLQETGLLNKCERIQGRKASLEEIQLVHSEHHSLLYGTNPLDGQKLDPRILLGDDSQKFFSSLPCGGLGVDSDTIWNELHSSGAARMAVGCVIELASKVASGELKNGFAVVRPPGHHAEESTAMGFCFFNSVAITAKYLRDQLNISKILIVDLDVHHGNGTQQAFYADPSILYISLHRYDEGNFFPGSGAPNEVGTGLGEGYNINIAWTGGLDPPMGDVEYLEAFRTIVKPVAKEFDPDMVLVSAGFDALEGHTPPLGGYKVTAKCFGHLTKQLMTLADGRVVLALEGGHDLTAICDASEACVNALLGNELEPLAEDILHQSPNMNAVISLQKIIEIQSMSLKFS
- Test details: Inhibition of recombinant HDAC9 (unknown origin) using Boc-Lys(trifluoroacetyl)-AMC as substrate preincubated for 1 hr followed by substrate addition and measured after 2 hrs by fluorescence based micro plate reader analysis
pIC50: −log10 of the molar value.
Outcome measure: pIC50

Look up pIC50: CCCNNC(=O)c1ccc(Cn2c3ccccc3c3c(-c4ccccn4)nc4ccccc4c32)cc1
< 5.00

----------
- Test details: AUC (0 to infinity) in male Sprague-Dawley rat at 2 mg/kg, iv measured after 12 hrs by LC-MS/MS analysis
- Type: ADME, organism-based
- Particulars: in vivo
Outcome measure: AUC(0-inf) (ng·h/mL)
I only need the number, in ng·h/mL, no unit after it.

Would you mind telling me what AUC(0-inf) value was observed for CCCNNC(=O)c1ccc(Cn2c3ccccc3c3c(-c4ccccn4)nc4ccccc4c32)cc1 ?
857

----------
- Measurement target: Histone deacetylase 2 (Homo sapiens, UniProt Q92769)
- Sequence (Q92769 whole entry): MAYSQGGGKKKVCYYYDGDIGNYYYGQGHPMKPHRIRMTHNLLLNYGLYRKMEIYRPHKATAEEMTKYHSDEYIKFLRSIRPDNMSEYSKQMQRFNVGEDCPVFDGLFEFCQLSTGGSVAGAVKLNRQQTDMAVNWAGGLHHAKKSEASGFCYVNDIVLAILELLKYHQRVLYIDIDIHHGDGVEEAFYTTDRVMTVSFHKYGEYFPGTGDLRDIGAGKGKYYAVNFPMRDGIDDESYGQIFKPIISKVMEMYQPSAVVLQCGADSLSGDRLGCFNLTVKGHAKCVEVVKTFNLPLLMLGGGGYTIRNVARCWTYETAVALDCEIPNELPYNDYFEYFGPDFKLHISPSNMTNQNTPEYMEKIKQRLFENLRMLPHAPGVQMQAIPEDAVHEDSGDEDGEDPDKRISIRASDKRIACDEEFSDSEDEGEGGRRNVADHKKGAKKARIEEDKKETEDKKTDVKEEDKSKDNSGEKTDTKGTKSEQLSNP
- Test details: Inhibition of recombinant HDAC2 (unknown origin) using Boc-Lys(acetyl)-AMC as substrate preincubated for 1 hr followed by substrate addition and measured after 2 hrs by fluorescence based micro plate reader analysis
Outcome measure: IC50 (µM)
Write the number in µM without appending the unit.

Please look up its IC50: CCCNNC(=O)c1ccc(Cn2c3ccccc3c3c(-c4ccccn4)nc4ccccc4c32)cc1
9.77

----------
- Measurement target: Polyamine deacetylase HDAC10 (Homo sapiens, UniProt Q969S8)
- Sequence (Q969S8 whole entry): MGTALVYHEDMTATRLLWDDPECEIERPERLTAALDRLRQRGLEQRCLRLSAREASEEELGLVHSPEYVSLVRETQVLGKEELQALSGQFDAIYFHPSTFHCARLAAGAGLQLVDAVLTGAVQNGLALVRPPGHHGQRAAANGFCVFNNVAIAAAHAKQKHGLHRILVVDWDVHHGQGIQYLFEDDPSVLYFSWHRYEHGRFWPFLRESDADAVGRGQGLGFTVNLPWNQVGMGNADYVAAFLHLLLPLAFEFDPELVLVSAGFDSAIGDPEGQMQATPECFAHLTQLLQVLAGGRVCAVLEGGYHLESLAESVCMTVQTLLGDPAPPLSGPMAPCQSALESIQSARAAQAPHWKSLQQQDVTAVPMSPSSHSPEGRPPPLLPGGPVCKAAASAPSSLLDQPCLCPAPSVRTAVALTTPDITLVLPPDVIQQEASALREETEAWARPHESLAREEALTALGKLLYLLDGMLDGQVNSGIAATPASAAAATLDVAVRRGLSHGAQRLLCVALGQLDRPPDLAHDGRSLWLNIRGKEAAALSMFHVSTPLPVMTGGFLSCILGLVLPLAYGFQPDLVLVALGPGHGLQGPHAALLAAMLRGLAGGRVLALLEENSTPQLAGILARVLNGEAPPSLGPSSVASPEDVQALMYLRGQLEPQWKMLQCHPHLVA
- Test details: Inhibition of recombinant HDAC10 (unknown origin) preincubated for 1 hr followed by substrate addition and measured after 2 hrs by fluorescence based micro plate reader analysis
Outcome measure: IC50

What value of IC50 has been recorded for this entry: CCCNNC(=O)c1ccc(Cn2c3ccccc3c3c(-c4ccccn4)nc4ccccc4c32)cc1
> 10 µM

----------
- Test details: Half-life in male Sprague-Dawley rat at 20 mg/kg, po measured after 12 hrs by LC-MS/MS analysis
- Format: ADME, organism-based
- Particulars: in vivo
Outcome measure: half-life (h)
The reply should contain only the number, in h.

For the compound CCCNNC(=O)c1ccc(Cn2c3ccccc3c3c(-c4ccccn4)nc4ccccc4c32)cc1 , what half-life is on record?
2.03

----------
- Test details: MRT (0 to infinity) in male Sprague-Dawley rat at 20 mg/kg, po measured after 12 hrs by LC-MS/MS analysis
- Type: ADME, organism-based
- Particulars: in vivo
Outcome measure: MRT inf (h)
The reply should contain only the number, in h.

GET /values?readout=MRT inf&item= CCCNNC(=O)c1ccc(Cn2c3ccccc3c3c(-c4ccccn4)nc4ccccc4c32)cc1
4.9

----------
- Test details: MRT (0 to t) in male Sprague-Dawley rat at 2 mg/kg, iv measured after 12 hrs by LC-MS/MS analysis
- Assay type: ADME, organism-based
- Particulars: in vivo
Outcome measure: MRT last at 12 h (min)
Supply the numeric figure in min, leaving out any unit text.

Form field: reported MRT last at 12 h of CCCNNC(=O)c1ccc(Cn2c3ccccc3c3c(-c4ccccn4)nc4ccccc4c32)cc1
44.3

----------
- Measurement target: Histone deacetylase 3 (Homo sapiens, UniProt O15379);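 further: recombinant HDAC3 enzyme with Boc-Lys(acetyl)-AMC substrate, fluorescence readout, compound preincubated 1 hr before a 2 hr reaction, inhibition expressed relative to control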
- Sequence (O15379 whole entry): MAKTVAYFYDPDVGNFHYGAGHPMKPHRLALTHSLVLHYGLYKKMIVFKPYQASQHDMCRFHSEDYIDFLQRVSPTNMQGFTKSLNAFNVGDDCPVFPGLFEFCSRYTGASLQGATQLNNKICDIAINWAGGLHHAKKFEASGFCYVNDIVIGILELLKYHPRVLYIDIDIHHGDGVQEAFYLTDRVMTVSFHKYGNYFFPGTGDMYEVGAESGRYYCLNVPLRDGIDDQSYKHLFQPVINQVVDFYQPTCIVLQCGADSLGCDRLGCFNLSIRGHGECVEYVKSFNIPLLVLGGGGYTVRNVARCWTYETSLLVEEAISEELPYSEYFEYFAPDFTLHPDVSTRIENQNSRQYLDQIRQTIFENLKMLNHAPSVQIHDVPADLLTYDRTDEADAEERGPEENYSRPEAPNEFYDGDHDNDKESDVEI
- Particulars: dose 500.0 nM, time 3.0 hrs
Outcome measure: inhibition

Observe how each entry below is paired with its result.
inhibition lookup needed for C/C=C/CNNC(=O)c1ccc(Cn2c3ccccc3c3c(-c4ccccn4)nc4ccccc4c32)cc1 , thanks.
91%

State the recorded inhibition for this entry: CCCNNC(=O)c1ccc(Cn2c3ccccc3c3c(-c4ccc(C(=O)NNCCC)cc4)nc4ccccc4c32)cc1
38%

Which inhibition value is on record for CCCNNC(=O)c1ccc(Cn2c3ccccc3c3c(-c4cccc(F)c4)nc4ccccc4c32)cc1 ?
69%

# input for lookup
Given the molecule CCCNNC(=O)c1ccc(Cn2c3ccccc3c3c(C4CCN(C(=O)OC(C)(C)C)CC4)nc4ccccc4c32)cc1 , what is its reported inhibition?
73%

----------
- Measurement target: Histone deacetylase 11 (Homo sapiens, UniProt Q96DB2)
- Sequence (Q96DB2 whole entry): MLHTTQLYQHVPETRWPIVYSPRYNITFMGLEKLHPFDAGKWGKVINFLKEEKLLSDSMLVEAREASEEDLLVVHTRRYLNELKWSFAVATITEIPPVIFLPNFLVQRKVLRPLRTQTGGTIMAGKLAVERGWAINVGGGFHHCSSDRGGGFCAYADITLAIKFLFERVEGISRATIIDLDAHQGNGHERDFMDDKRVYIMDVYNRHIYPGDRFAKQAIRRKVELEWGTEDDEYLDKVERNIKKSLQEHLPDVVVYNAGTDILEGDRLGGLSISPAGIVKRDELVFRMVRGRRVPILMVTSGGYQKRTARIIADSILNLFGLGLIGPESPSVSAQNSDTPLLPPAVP
- Test details: Inhibition of recombinant HDAC11 (unknown origin) preincubated for 1 hr followed by substrate addition and measured after 2 hrs by fluorescence based micro plate reader analysis
Outcome measure: pIC50
Quick note: pIC50 means taking -log10 of the concentration in moles per liter.

Entry under review: CCCNNC(=O)c1ccc(Cn2c3ccccc3c3c(-c4ccccn4)nc4ccccc4c32)cc1 . Reported pIC50?
5.05

----------
- Test details: Clast in male Sprague-Dawley rat at 2 mg/kg, iv measured after 12 hrs by LC-MS/MS analysis
- Type: ADME, organism-based
- Particulars: in vivo, read-out: Clast
Outcome measure: concentration at 12 h (ng/mL)
# output: bare number, implied unit ng/mL

Need concentration at 12 h of CCCNNC(=O)c1ccc(Cn2c3ccccc3c3c(-c4ccccn4)nc4ccccc4c32)cc1 , thanks.
0.475

----------
- Test details: MRT (0 to t) in male Sprague-Dawley rat at 20 mg/kg, po measured after 12 hrs by LC-MS/MS analysis
- Format: ADME, organism-based
- Particulars: in vivo
Outcome measure: MRT last at 12 h (h)
Use h as the unit, but write only the number.

// returns reported MRT last at 12 h for input CCCNNC(=O)c1ccc(Cn2c3ccccc3c3c(-c4ccccn4)nc4ccccc4c32)cc1
4.43
